The measurements presented in this section are drawn from patent US7074789B2.

target: c-Met (Homo sapiens); construct: Kinases are expressed as either kinase domains or full length constructs; made in house; experiment: Kinase inhibition assay (33P transfer), c-Met; assay type: biochemical; settings: Table 2, kinase inhibition class; read-out: Met-1
Sequence (P08581 25-1390): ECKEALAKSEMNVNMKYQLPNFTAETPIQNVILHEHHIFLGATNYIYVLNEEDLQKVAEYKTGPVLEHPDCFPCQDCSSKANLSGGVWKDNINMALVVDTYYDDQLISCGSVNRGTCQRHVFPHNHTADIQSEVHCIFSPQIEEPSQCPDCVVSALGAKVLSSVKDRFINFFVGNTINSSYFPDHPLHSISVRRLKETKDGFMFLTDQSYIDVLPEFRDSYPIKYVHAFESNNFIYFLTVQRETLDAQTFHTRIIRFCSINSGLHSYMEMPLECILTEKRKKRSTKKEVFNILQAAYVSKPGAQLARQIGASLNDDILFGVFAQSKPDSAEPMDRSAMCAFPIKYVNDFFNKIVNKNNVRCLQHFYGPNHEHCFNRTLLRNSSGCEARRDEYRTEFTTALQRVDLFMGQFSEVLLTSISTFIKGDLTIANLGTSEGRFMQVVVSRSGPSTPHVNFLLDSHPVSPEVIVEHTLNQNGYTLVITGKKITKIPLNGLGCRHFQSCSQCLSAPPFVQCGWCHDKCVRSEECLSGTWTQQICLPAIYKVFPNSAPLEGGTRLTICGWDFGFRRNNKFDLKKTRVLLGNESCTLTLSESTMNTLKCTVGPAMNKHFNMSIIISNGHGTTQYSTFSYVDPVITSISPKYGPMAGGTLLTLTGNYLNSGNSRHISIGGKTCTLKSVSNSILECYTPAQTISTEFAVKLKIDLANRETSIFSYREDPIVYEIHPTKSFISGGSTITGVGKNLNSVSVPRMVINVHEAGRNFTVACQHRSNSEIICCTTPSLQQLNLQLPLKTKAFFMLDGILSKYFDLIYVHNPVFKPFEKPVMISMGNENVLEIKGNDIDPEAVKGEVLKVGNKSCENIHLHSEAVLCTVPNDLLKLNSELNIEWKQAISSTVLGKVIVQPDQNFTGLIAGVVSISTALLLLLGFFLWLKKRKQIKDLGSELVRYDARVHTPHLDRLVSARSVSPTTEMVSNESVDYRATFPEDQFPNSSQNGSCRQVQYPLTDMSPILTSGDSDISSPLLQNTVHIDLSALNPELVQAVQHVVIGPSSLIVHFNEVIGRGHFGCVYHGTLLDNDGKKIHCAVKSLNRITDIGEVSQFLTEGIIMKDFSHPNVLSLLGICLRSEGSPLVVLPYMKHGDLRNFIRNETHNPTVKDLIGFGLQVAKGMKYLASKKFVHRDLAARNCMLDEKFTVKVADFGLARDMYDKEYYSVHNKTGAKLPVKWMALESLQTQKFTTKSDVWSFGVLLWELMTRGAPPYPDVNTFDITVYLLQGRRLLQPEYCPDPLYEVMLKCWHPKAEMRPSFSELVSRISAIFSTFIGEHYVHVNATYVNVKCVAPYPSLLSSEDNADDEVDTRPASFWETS
observable: IC50

Reference set (6 entries):
COc1cc(Nc2ncnc(-n3c(=O)[nH]c4ccccc43)n2)cc(OCCN2CCOCC2)c1OC | > 9.12 µM
COc1ccc(Nc2ncnc(Nc3ccc(F)c(Cl)c3)n2)cc1OC | > 12 µM
COc1cc(Nc2ncnc(-n3c(NCc4ccccn4)nc4ccccc43)n2)cc(OC)c1OCCn1ccnn1 | > 7.96 µM
COc1ccc(Nc2ncnc(Nc3cc(OC)c(OC)c(OC)c3)n2)cc1OC | > 10.9 µM
COc1ccc(Nc2ncnc(N(C)c3ccc(Cl)c(Cl)c3)n2)cc1OC | < 0.985 µM
OCc1ccc(Nc2ncnc(Nc3cc(-c4ccco4)n[nH]3)n2)cc1 | 1.14 to 6.87 µM

# get_value(readout= IC50, system= c-Met (Homo sapiens)) for `Fc1ccccc1Nc1ncnc(-c2ccccc2)n1`
> 16.9 µM
